GI50 values, listed per item
# Tested on: SW-620
# Protocol Description: NCI tumour cell line growth inhibition, 48 h
Calls of active or inactive are those of the source. Cut-off read from the data, not from the text of the source: active = GI50 up to about 1.1 µM and inactive = higher.

COc1ccc2cc(C(=O)CCC(=O)O)ccc2c1: > 100 µM (inactive)
COc1ccc2c(c1)CCN=C2c1ccccc1CCCCl: > 100 µM (inactive)
BrC1=CN2C[n+]3cc(Br)c4ccccc4c3N=C2c2ccccc21: 12.3 µM (inactive)
O=C(c1ccccc1)c1ccc(C(c2c(O)c3ccccc3oc2=O)c2c(O)c3ccccc3oc2=O)cc1: 43.9 µM (inactive)

// fetch GI50 given entry Cc1[nH]c(C)c(CN(C)C)c1CN(C)C
> 100 µM (inactive)
